Provenance of the data: paper PMC9022596

# Test system: Staphylococcus aureus PB0805
# Construct: PB0805
# Assay text: microbe, parasite or virus in culture
# Design: Broth microdilution MIC in cation-adjusted MHB-Ca2+, growth inhibition per EUCAST reading
# Particulars: PB0805, 16 h, replicate 2
Measurement type: MIC (µg/mL)
Report the figure in µg/mL without appending any unit label.

Could you tell me which MIC is on file for CCCCCCCCCC(=O)N[C@@H](Cc1c[nH]c2ccccc12)C(=O)N[C@H](CC(N)=O)C(=O)N[C@@H](CC(=O)O)C(=O)N[C@@H]1C(=O)NCC(=O)N[C@@H](CCCN)C(=O)N[C@@H](CC(=O)O)C(=O)N[C@H](C)C(=O)N[C@@H](CC(=O)O)C(=O)NCC(=O)N[C@H](CO)C(=O)N[C@@H]([C@H](C)CC(=O)O)C(=O)N[C@@H](CC(=O)c2ccccc2N)C(=O)O[C@@H]1C [Daptomycin] ?
1

Could you tell me which MIC is on file for CC(=O)NC[C@H]1CN(c2ccc(N3CCOCC3)c(F)c2)C(=O)O1 [Linezolid] ?
4

Could you tell me which MIC is on file for CN[C@H](CC(C)C)C(=O)N[C@H]1C(=O)N[C@@H](CC(N)=O)C(=O)N[C@H]2C(=O)N[C@H]3C(=O)N[C@H](C(=O)N[C@H](C(=O)O)c4cc(O)cc(O)c4-c4cc3ccc4O)[C@H](O)c3ccc(c(Cl)c3)Oc3cc2cc(c3O[C@@H]2O[C@H](CO)[C@@H](O)[C@H](O)[C@H]2O[C@H]2C[C@](C)(N)[C@H](O)[C@H](C)O2)Oc2ccc(cc2Cl)[C@H]1O [Vancomycin] ?
1

Could you tell me which MIC is on file for CCO/N=C(\C(=O)N[C@@H]1C(=O)N2C(C(=O)[O-])=C(Sc3nc(-c4cc[n+](C)cc4)cs3)CS[C@H]12)c1nsc(N)n1 [Ceftaroline] ?
0.5
